Recorded melting point by entry
Structures can show the parent of a compound that is named as a salt.

Challenge: Find the measured melting point of `COc1ccccc1-c1nn(-c2ccccc2)c(=O)n1C` and report it.
Response given: 117 °C

Challenge: Find the measured melting point of Cc1ccccc1-n1nc(-c2ccccc2)n(CCN(C)C)c1=O (as salt: HCl) and report it.
Response given: 204 to 207 °C

Challenge: Find the measured melting point of `Cn1c(-c2ccccc2)nn(-c2ccccc2Br)c1=O` and report it.
Response given: 80 to 82 °C

---
Challenge: Find the measured melting point of `COc1cccc(-n2nc(-c3ccccc3)n(C)c2=O)c1` and report it.
Response given: 81 to 83 °C

Challenge: Find the measured melting point of `Cn1c(-c2ccccc2)nn(-c2ccccc2F)c1=O` and report it.
Response given: 65 to 66 °C

Challenge: Find the measured melting point of `COc1ccc(-c2nn(-c3ccccc3)c(=O)n2C)cc1` and report it.
Response given: 118 °C

Challenge: Find the measured melting point of `Cn1c(-c2ccccc2)nn(-c2ccccc2Cl)c1=O` and report it.
Response given: 94 to 96 °C

Challenge: Find the measured melting point of `Cc1cccc(-n2nc(-c3ccccc3)n(C)c2=O)c1` and report it.
Response given: 91 to 92 °C

Challenge: Find the measured melting point of `Cc1ccccc1-n1[nH]c(-c2ccccc2)nc1=O` and report it.
Response given: 208 to 211 °C

---

Counter-ions that a name gives are not always drawn.
property-name: melting point

# example entries with known answers
Challenge: Find the measured melting point of Cc1cccc(-n2nc(-c3ccccc3)n(CCN(C)C)c2=O)c1 (as salt: HCl) and report it.
Response given: 204 to 206 °C

Challenge: Find the measured melting point of CN(C)CCn1c(-c2ccccc2)nn(-c2cccc(F)c2)c1=O (as salt: HCl) and report it.
Response given: 201 to 203 °C

---
Challenge: Find the measured melting point of `COc1ccccc1-n1[nH]c(-c2ccccc2)nc1=O` and report it.
Response given: 275 to 277 °C

Challenge: Find the measured melting point of `Cn1c(-c2ccccc2)nn(-c2cccc(F)c2)c1=O` and report it.
Response given: 81 °C

Challenge: Find the measured melting point of `O=c1nc(-c2ccccc2)[nH]n1-c1ccccc1Cl` and report it.
Response given: 257 °C

Challenge: Find the measured melting point of `CCc1ccccc1-n1[nH]c(-c2ccccc2)nc1=O` and report it.
Response given: 209 to 210 °C

Challenge: Find the measured melting point of `O=c1nc(-c2ccccc2)[nH]n1-c1ccccc1Br` and report it.
Response given: 246 to 264 °C

Challenge: Find the measured melting point of `O=c1nc(-c2ccccc2)[nH]n1-c1ccccc1F` and report it.
Response given: 238 to 240 °C

Challenge: Find the measured melting point of Cc1cccc(-n2[nH]c(-c3ccccc3)nc2=O)c1 (as salt: HCl) and report it.
Response given: 207 to 208 °C

---

- test-system: Na+ channel site 2 binding site
- assay: Affinity to the "Na+ channel site 2" binding site (method of G. B. Brown)
- experimental-context: testing typically at a test concentration of 10 μM
property-name: Ki
Answer shape: numeric part, then the unit.

Challenge: Find the measured Ki of `Cc1ccccc1-n1nc(-c2ccccc2)n(CCN(C)C)c1=O` and report it.
Response given: 5.41 µM

---
Challenge: Find the measured Ki of `Cc1cccc(-n2nc(-c3ccccc3)n(CCN(C)C)c2=O)c1` and report it.
Response given: 5.78 µM

Challenge: Find the measured Ki of `CN(C)CCn1c(-c2ccccc2)nn(-c2cccc(Cl)c2)c1=O` and report it.
Response given: 2.08 µM

Challenge: Find the measured Ki of `CN(C)CCn1c(-c2ccccc2)nn(-c2cccc(F)c2)c1=O` and report it.
Response given: 6.58 µM
